procedure-text: Hepatic microsomal stability, HLM
Assay type: in vitro ADME, human
measurement-parameters: In vitro human liver microsomal stability

[
  {
    "compound": "CNCc1cc(-c2cc3c(N[C@@H](c4ccc5c(c4)S(=O)(=O)NCC5)C(C)C)ncnc3[nH]2)co1 [ASAP-0011243]",
    "t_half, min": 35.9
  },
  {
    "compound": "CC(C)[C@@H](Nc1ncnc2[nH]ccc12)c1ccc2c(c1)S(=O)(=O)CCO2 [ASAP-0012318]",
    "t_half, min": 91.3
  },
  {
    "compound": "CC(C)[C@H](Nc1ncnc2[nH]cc(C(N)=O)c12)c1ccc2c(c1)OCCO2 (racemic) [ASAP-0008399]",
    "t_half, min": 11.7
  },
  {
    "compound": "CC(C)[C@@H](Nc1ncnc2[nH]c(-c3cnn(C)c3C#N)cc12)c1ccc2c(n1)NC(=O)CO2 [ASAP-0008644]",
    "t_half, min": 23.7
  },
  {
    "compound": "CC(C)[C@H](Nc1ncnc2[nH]c(-c3cnn(CC(N)=O)c3)cc12)c1ccc2c(c1)OCCO2 (single isomer, unassigned) [ASAP-0008450]",
    "t_half, min": 7.0
  },
  {
    "compound": "CNCc1cc(-c2cc3c(N[C@@H](c4ccc5c(c4)S(=O)(=O)CCC5)C(C)C)ncnc3[nH]2)co1 [ASAP-0011176]",
    "t_half, min": 12.6
  },
  {
    "compound": "CNC(=O)c1cccc(-c2cc3c(N[C@H](c4ccc5c(c4)S(=O)(=O)CCC5)C(C)C)ncnc3[nH]2)c1 (single isomer, unassigned) [ASAP-0012338]",
    "t_half, min": 2.2
  },
  {
    "compound": "CC(C)[C@@H](Nc1ncnc2[nH]c(-c3cnn(C)c3)cc12)c1ccc2c(c1)S(=O)(=O)CCC2 [ASAP-0008678]",
    "t_half, min": 11.9
  },
  {
    "compound": "CC(C)[C@@H](Nc1ncnc2[nH]c(-c3cnn(C)c3C#N)cc12)c1ccc2c(c1)OCCO2 (racemic) [ASAP-0008275]",
    "t_half, min": 22.6
  },
  {
    "compound": "CC(C)[C@H](Nc1ncnc2[nH]c(C(=O)N[C@@H]3CCN(C)C3)cc12)c1ccc2c(c1)S(=O)(=O)CCC2 [ASAP-0011196]",
    "t_half, min": 626.9
  },
  {
    "compound": "CC(C)[C@H](Nc1ncnc2[nH]c(-c3cnn(CC(=O)N(C)C)c3)cc12)c1ccc2c(c1)S(=O)(=O)CCC2 [ASAP-0013744]",
    "t_half, min": 18.1
  },
  {
    "compound": "CC(C(=O)O)C(NC(=O)c1ncnc2[nH]ccc12)c1ccc(Br)cc1 (mixture of isomers) [ASAP-0008445]",
    "t_half, min": 338.5
  },
  {
    "compound": "CC(C)(C)[C@H](Nc1ncnc2[nH]c(-c3cnn(CC(N)=O)c3)cc12)c1ccc2c(c1)OCCO2 (racemic) [ASAP-0008581]",
    "t_half, min": 12.6
  },
  {
    "compound": "CC(C)[C@H](Nc1ncnc2[nH]c(-c3cnn(CC(=O)N(C)C)c3)cc12)c1ccc2c(c1)OCCO2 (single isomer, unassigned) [ASAP-0013833]",
    "t_half, min": 3.3
  }
]
